Recorded below: IC50, system UniProt:P53341.
Sequence (P53341 whole entry): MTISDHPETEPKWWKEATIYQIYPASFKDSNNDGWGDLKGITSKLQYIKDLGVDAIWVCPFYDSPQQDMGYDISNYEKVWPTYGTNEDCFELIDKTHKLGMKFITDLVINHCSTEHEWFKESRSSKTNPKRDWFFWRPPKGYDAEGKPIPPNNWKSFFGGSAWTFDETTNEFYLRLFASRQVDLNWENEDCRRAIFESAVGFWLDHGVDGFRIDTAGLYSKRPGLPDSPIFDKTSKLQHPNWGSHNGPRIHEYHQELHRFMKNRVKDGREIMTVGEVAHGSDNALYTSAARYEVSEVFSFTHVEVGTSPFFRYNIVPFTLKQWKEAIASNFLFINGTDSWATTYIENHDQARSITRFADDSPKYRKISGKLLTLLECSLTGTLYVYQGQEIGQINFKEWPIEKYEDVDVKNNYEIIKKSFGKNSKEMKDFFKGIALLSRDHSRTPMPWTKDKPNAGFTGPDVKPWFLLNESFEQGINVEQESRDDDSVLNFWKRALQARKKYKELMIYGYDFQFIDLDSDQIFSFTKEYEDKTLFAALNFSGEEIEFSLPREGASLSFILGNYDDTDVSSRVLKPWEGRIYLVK

Below, each entry is followed by its recorded IC50 result.
[[record]]
structure_as_smiles = "C=CCNC(=S)Nc1c(-c2ccccc2)cc(C)[nH]c1=O"
endpoint_name = "IC50"
recorded_value = "19.8 mM"

[[record]]
structure_as_smiles = "C=CCNC(=S)Nc1c(C)cc(C)[nH]c1=O"
endpoint_name = "IC50"
recorded_value = "16.6 mM"

[[record]]
structure_as_smiles = "Cc1cc(C)c(NC(=S)Nc2ccccc2)c(=O)[nH]1"
endpoint_name = "IC50"
recorded_value = "9.77 mM"


Continue with the next compound.
Cc1cc(-c2ccccc2)c(NC(=S)Nc2ccccc2)c(=O)[nH]1 yielded IC50 of 21.8 mM
